B1: HDV Ribozyme (parent)
chain: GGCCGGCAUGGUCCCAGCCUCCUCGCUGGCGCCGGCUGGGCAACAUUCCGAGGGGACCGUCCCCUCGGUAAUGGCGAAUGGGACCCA

# Variants of: B1
# procedureDetails: self-cleavage, relative activity (ratio to wild type); higher = more cleavage; co-transcriptional
Decision: self-cleavage >= 0.2 yields y, all other cases yield n.

A45C G81A    n
C18G G81A    y
U65A C66U    y
G38A A87C    n

Decide: is the reported value of self-cleavage for C19U G74C equal to or greater than 0.2?
n

Is self-cleavage at least 0.2? Consider G39U U60G
y

Hello, I need to know if G11A C21A has measured self-cleavage not below 0.2. Thanks!
n

These data points were gathered from the RNAGym collection of RNA variant scans (doi:10.7554/elife.80360).
